Values from BindingDB's records for doi:10.1016/j.chembiol.2010.01.008

- system_under_test: Mitogen-activated protein kinase 14 (Homo sapiens)
- Sequence (Q16539 whole entry): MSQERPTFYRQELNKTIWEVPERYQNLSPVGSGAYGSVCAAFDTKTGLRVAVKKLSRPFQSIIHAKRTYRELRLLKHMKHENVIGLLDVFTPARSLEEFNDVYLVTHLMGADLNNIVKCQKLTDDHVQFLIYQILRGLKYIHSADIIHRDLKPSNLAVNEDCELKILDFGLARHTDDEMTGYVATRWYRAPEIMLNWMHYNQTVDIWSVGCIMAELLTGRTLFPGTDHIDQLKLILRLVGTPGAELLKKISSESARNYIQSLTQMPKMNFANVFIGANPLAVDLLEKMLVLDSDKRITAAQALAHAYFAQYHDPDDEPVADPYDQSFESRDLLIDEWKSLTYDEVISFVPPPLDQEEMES
- assay_comment: In Vitro Activity Assay
- condition_label: pH 7.5
measured_metric: pKd
Note on pKd: it is the negative log10 of concentration, concentration in mol/L.

Ask: Query: pKd; subject: Cc1ccc(NC(=O)c2cccc(C(F)(F)F)c2)cc1Nc1ncccc1-c1ncnc(Nc2ccc(OCCNC(=O)CCCCNC(=O)CCC3=[N+]4B(F)n5c(C)cc(C)c5C=C4C=C3)cc2)n1 [BODIPY-labeled probe, 4a]
Result: 7.46

----------
- system_under_test: Tyrosine-protein kinase CSK (Homo sapiens, UniProt P41240)
- Sequence (P41240 whole entry): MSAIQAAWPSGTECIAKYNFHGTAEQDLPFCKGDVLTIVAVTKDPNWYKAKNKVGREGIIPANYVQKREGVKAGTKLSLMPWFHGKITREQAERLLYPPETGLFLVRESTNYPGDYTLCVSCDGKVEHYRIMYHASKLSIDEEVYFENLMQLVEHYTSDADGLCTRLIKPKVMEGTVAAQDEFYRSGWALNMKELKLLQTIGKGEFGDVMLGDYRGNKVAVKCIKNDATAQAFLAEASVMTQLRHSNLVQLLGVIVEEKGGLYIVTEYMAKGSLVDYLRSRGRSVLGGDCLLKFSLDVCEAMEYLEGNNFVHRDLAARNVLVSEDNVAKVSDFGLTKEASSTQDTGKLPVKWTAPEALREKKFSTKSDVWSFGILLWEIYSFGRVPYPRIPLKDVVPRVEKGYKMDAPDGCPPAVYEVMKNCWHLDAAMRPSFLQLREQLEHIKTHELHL
measured_metric: pKd
Note on units: pKd is unitless, being -log10 of a concentration expressed in mol/L.

Ask: Form: Entry = Cc1ccc(NC(=O)c2cccc(C(F)(F)F)c2)cc1Nc1ncccc1-c1ncnc(Nc2ccc(OCCNC(=O)CCCCNC(=O)CCC3=[N+]4B(F)n5c(C)cc(C)c5C=C4C=C3)cc2)n1 [BODIPY-labeled probe, 4a] | System = Tyrosine-protein kinase CSK (Homo sapiens, UniProt P41240) | pKd = ____
Result: 7.77

----------
Could you please report measured IC50 for the items listed next?
- system_under_test: Tyrosine-protein kinase Lck (Homo sapiens, UniProt P06239)
- Sequence (P06239 whole entry): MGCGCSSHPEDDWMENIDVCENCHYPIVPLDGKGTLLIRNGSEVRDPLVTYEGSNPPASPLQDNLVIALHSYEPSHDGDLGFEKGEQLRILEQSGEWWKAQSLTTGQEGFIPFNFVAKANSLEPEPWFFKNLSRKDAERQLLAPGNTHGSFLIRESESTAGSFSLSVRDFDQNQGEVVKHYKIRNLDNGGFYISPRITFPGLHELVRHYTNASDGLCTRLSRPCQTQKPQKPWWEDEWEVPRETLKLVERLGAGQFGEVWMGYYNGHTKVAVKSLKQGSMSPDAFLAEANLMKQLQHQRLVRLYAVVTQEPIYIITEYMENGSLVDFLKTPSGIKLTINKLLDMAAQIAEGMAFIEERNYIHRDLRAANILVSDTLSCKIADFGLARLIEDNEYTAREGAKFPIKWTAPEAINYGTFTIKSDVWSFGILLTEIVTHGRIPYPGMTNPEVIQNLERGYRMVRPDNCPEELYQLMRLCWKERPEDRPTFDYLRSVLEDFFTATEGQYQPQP
- assay_comment: In Vitro Activity Assay
- condition_label: pH 7.5

Ask: # IC50 lookup, item Cc1ccc(NC(=O)c2cccc(C(F)(F)F)c2)cc1Nc1ncccc1-c1ncnc(Nc2ccc(OCCNC(=O)COCCOCCOCCOCCN)cc2)n1 [Amine compound, 12a]
Result: < 10 nM

Ask: Fill blank: measured IC50 of the molecule Cc1ccc(NC(=O)c2cccc(C(F)(F)F)c2)cc1Nc1ncccc1-c1cc(Nc2ccc(OCCNC(=O)COCCOCCOCCOCCN)cc2)ncn1 [Amine compound, 13a] is ____.
Result: < 10 nM

----------
Reported IC50 values, Dual specificity protein kinase CLK1 (Homo sapiens).

Ask: Look up IC50: Cc1ccc(NC(=O)c2cccc(C(F)(F)F)c2)cc1Nc1ncccc1-c1cc(Nc2ccc(OCCNC(=O)COCCOCCOCCOCCN)cc2)ncn1 [Amine compound, 13a]
Result: > 10 µM

Ask: What value of measured IC50 is listed for Cc1ccc(NC(=O)c2cccc(C(F)(F)F)c2)cc1Nc1ncccc1-c1ncnc(Nc2ccc(OCCNC(=O)COCCOCCOCCOCCN)cc2)n1 [Amine compound, 12a] ?
Result: > 10 µM

----------
- system_under_test: Tyrosine-protein kinase ABL1 [1-999,Y253H] (Homo sapiens, UniProt P00519, Y253H)
- Construct: 1-999
- assay_comment: In Vitro Activity Assay
- condition_label: pH 7.5
measured_metric: pKd
The meaning of pKd here: minus log10 of the concentration in molar units.

Ask: What value of pKd has been reported for the following molecule? Cc1ccc(NC(=O)c2cccc(C(F)(F)F)c2)cc1Nc1ncccc1-c1ncnc(Nc2ccc(OCCNC(=O)CCCCNC(=O)CCC3=[N+]4B(F)n5c(C)cc(C)c5C=C4C=C3)cc2)n1 [BODIPY-labeled probe, 4a]
Result: 8.03

----------
These compounds were tested on Serine/threonine-protein kinase PAK 4 (Homo sapiens); IC50 is the recorded read-out.
Sequence (O96013 whole entry): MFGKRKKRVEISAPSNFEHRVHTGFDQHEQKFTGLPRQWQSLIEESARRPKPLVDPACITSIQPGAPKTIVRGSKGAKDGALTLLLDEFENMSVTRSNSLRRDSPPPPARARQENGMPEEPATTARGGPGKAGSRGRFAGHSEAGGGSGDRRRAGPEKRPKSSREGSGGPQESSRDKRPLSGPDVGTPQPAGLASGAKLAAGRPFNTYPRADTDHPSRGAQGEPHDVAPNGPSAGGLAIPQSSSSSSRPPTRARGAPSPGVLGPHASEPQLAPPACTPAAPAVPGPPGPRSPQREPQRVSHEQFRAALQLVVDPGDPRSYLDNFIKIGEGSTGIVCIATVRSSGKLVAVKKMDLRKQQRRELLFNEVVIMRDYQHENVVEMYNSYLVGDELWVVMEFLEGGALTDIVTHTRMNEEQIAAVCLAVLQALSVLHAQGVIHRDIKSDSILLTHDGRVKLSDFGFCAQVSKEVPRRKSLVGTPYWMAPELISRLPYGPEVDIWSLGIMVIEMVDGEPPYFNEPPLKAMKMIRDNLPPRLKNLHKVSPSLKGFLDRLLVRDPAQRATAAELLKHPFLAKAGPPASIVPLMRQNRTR

Ask: Form field: reported IC50 of Cc1ccc(NC(=O)c2cccc(C(F)(F)F)c2)cc1Nc1ncccc1-c1cc(Nc2ccc(OCCNC(=O)COCCOCCOCCOCCN)cc2)ncn1 [Amine compound, 13a]
Result: > 10 µM

Ask: I am curious: what IC50 value has been reported for Cc1ccc(NC(=O)c2cccc(C(F)(F)F)c2)cc1Nc1ncccc1-c1ncnc(Nc2ccc(OCCNC(=O)COCCOCCOCCOCCN)cc2)n1 [Amine compound, 12a] ?
Result: > 10 µM
